- MEASURED ON: Metabotropic glutamate receptor 8 (Rattus norvegicus)
- METHOD NOTES: mGluR8 Gi/Go-coupled signaling modulation – cell-based, rat, thallium flux, HTS, primary screen (AID 488969)
- APPLIED CONDITIONS: HEK293 rat mGluR8, GIRK (G protein-gated inwardly rectifying potassium channel) thallium flux, FluoZin2; at 10 µM; stronger effect = higher value; submaximal glutamate (EC20) added with thallium
Over roughly 110,000 compounds, “z-score” has its median near -0.1; the highest 2% begin near 2. The sample holds the highest values, similar compounds and a random draw of the others, so the mix is not that of the screen.
MEASURED QUANTITY: z-score
Lab note: jot the number down without any unit.

## Input // lookup z-score for CCOc1ccccc1Nc1nnc(Cc2ccccc2Cl)c(=O)[nH]1
## Output 12.8

## Input Record: COc1ccc(Cn2c(O)cc(=O)[nH]c2=O)cc1
## Output 0.277

## Input Record: NC(=O)c1ccsc1NC(=O)CSc1nc2ccccc2c(=O)n1CCCO
## Output -0.109

## Input Record: Cc1cc(C)nc(/N=C(\N)Nc2cccc([N+](=O)[O-])c2)n1
## Output -1.04

## Input Record: O=c1c2c(nc3c(-c4cccc5ccccc45)c[nH]n13)CCC2
## Output -0.52

## Input Record: O=C(CCNC(=O)c1ccccc1Cl)Nc1cccc(C(F)(F)F)c1
## Output -0.204

## Input Record: O=c1c2c(nc3c(-c4ccc(Cl)cc4)c[nH]n13)CCCC2
## Output 12

## Input Record: C=CCN1C(=O)/C(=C2/Sc3ccccc3N2C)SC1=Nc1ccccc1C
## Output -0.792

## Input Record: COc1ccc(/C=C/C(=O)Nc2nc(N)n(-c3ccccc3)n2)cc1
## Output -0.0927

## Input Record: Nc1[nH]n2c(=O)c3c(nc2c1N=Nc1ccc(Cl)cc1)CCCC3
## Output -1.09

## Input Record: O=C(NCc1ccc(Cl)cc1)C1C2C=CC3(CN(Cc4cccnc4)C(=O)C13)O2 (stereo not drawn)
## Output 0.82

## Input Record: Cc1ccc(/C=N/NC(=O)c2cccs2)s1
## Output 1.3

## Input Record: CCCOc1ccccc1Nc1nnc(C)c(=O)[nH]1
## Output 0.409

## Input Record: Cc1ccc(N=Nc2c(N)[nH]n3c(=O)c4c(nc23)CCCC4)cc1
## Output -0.696

## Input Record: CC(=O)c1ccc(N2CCN(C(=O)c3ccco3)CC2)c(F)c1
## Output -0.0315

## Input Record: O=c1c2c(nc3c(-c4cccc(Br)c4)c[nH]n13)CCCC2
## Output 6.35

## Input Record: Cc1occc1-c1nnc(SCC(=O)NC(C)(C)C)n1C(C)c1ccccc1 (stereo not drawn)
## Output 0.32

## Input Record: CCN(CC)S(=O)(=O)c1ccc(C(=O)OCCNC(=O)c2cccnc2)cc1
## Output -0.485

## Input Record: O=C(N/N=C/c1cccs1)c1cccs1
## Output 0.0886

## Input Record: O=Cc1cn(CC(=O)N2CCOCC2)c2ccccc12
## Output -0.773

## Input Record: O=c1c2c(nc3cc(-c4ccccc4)[nH]n13)CCC2
## Output -0.413

## Input Record: COc1ccc(CC(=O)O/N=C(\N)Cc2cccc3ccccc23)cc1OC
## Output -0.317

## Input Record: Cc1ccc(-c2[nH]n3c(=O)c4c(nc3c2C)CCCC4)cc1
## Output 11

Origin of values: PubChem BioAssay AID488969
